Molecular target: human P2X7 receptor (Homo sapiens, UniProt Q99572, R270H/Y155H)
Test: Evaluation of human P2X7 receptor inhibitory activity (Yo-Pro uptake, BzATP stimulation, FLIPR TETRA)
Format: cell-based
Conditions: antagonistic activity for the human P2X7 receptor; read-out: IC50
pIC50: −log10 of the molar value.
Catalogue of compounds with associated pIC50
experimental-endpoint: pIC50

• Cc1ccc(N2CCCC2=O)cc1Nc1nc(=O)c(Cl)cn1Cc1cc(F)cc(F)c1 = > 8.00
• COc1ccc(Nc2nc(=O)c(OC)cn2Cc2ccc(F)cc2)c(C)c1 = 7.00 to 8.00
• CCc1cc(F)c(OC)cc1Nc1nc(=O)c(OC)cn1Cc1cc(F)cc(Cl)c1 = > 8.00
